# experimental protocol: in vitro
# conditions: human, hela cells, % viability
Lab note: anything with viability at 28.5 h, 10 µM below 90% is marked t; values at 90% or higher are marked f.

Solved cases (5 shown):
[
  {
    "compound": "O=[S+]([O-])(c1ccccc1)N1CCC(N(CCc2ccccc2)Cc2ccccc2)CC1 [CBK264617G]",
    "assigned class": "f"
  },
  {
    "compound": "O=C1c2ccccc2C(=O)N1CCc1nn2c(-c3cccnc3)nnc2s1",
    "assigned class": "f"
  },
  {
    "compound": "O=C(c1ccccc1)n1c(=S)nc2n(c1=S)CCN2",
    "assigned class": "t"
  },
  {
    "compound": "O=c1[nH]c2ncc(-c3ccco3)nc2n1Cc1cccs1",
    "assigned class": "f"
  },
  {
    "compound": "CC(Oc1cccc2ccccc12)C(=O)N/N=C/c1ccc(Cl)cc1Cl (centres unmarked)",
    "assigned class": "f"
  }
]

Task item: Determine if `COc1cc(C(=O)O)ccc1OCC(=O)Nc1ccc(F)cc1` shows viability at 28.5 h, 10 µM strictly lower than 90%.
Reply: f

Task item: Another compound to look at: `COC(=O)c1ccsc1NC(=O)c1cc(-c2ccc(C)o2)nc2ccc(Br)cc12`
Reply: t

Task item: Another compound to look at: CN1CCN(C)C(COc2nccc(C(F)(F)F)n2)C1 (centres unmarked)
Reply: f

Task item: Another compound to look at: `O=C(Nc1ccc(Cl)c(Cl)c1)c1cnc2sccn2c1=O`
Reply: t

Task item: Another compound to look at: `O=C(O)C1CCN(C(=O)Cc2c[nH]c3ccccc23)CC1`
Reply: t

Task item: Another compound to look at: `Cc1cc(S(=O)(=O)Nc2ccccc2-c2nnnn2C(C)C)c(C)o1`
Reply: f

Task item: Another compound to look at: `CCCCc1ccc(-c2cc3ncccc3nc2N)cc1`
Reply: f

Task item: Another compound to look at: `COC(=O)c1c(COC(=O)c2cnc(Cl)c(Cl)c2)nc2ccccc2c1C`
Reply: f

Task item: Another compound to look at: Cn1c(=O)c2c(nc(N3CCOCC3)n2CC/N=C2/CCCCCN2)n(C)c1=O [CBK267708C]
Reply: t

Task item: Another compound to look at: `CCN1CCN(C(=O)CN(C)S(=O)(=O)c2ccc(OC)c(Cl)c2)CC1`
Reply: f

Task item: Another compound to look at: `CCOc1ccc(NC(=O)c2c[nH]c(=O)n(-c3ccc(F)cc3)c2=O)cc1`
Reply: f

Task item: Another compound to look at: `CCOC(=O)COc1ccc2c(=O)c(Oc3ccc([N+](=O)[O-])cc3)c(C)oc2c1C`
Reply: f

Task item: Another compound to look at: `COc1cc2c(cc1CNC(=O)c1cn(CCN)nn1)CCC2`
Reply: t

Task item: Another compound to look at: COC(=O)C1C2CCN(CC2)C1SCc1cccc(C(F)(F)F)c1 (centres unmarked) [CBK010829C]
Reply: t

Task item: Another compound to look at: `CNC(=O)C1(Cc2ccccc2-c2ccccc2)CCN(C(=O)c2cccc(OC)c2)CC1`
Reply: t

Task item: Another compound to look at: `CSCCCNC(=O)c1cc(-c2ccc(C(=O)N3CCOCC3)cc2)cnc1N`
Reply: f

Task item: Another compound to look at: CCOC(=O)N/N=C1\CCCCC1CC (centres unmarked)
Reply: t

Task item: Another compound to look at: `Cc1ccc(S(=O)(=O)N(C(=O)c2ccncc2)c2ccc(OC(=O)c3ccncc3)cc2)c(C)c1`
Reply: f

Task item: Another compound to look at: `CCn1c(=O)c2c(cnn2C)c2ccccc21`
Reply: t

Task item: Another compound to look at: `O=C(Cc1cccc2ccccc12)Nc1ccccc1C(=O)O`
Reply: f

Task item: Another compound to look at: Cc1nc(C(=O)NC2CC(=O)N(CCc3ccc(F)cc3)C2)cs1 (centres unmarked)
Reply: f

Task item: Another compound to look at: `O=C(Nc1ccc(F)cc1)c1sccc1NS(=O)(=O)c1cc(F)c(Br)cc1F`
Reply: f

Task item: Another compound to look at: `O=C(NC(c1ccccc1)c1ccccc1)N1CCN(Cc2ccccc2)CC1`
Reply: t

Task item: Another compound to look at: `Cc1c(N2C(=O)/C(=C3\C(=O)Nc4ccc([N+](=O)[O-])cc43)SC2=S)c(=O)n(-c2ccccc2)n1C`
Reply: f

Task item: Another compound to look at: `COc1cc(/C(CS(C)(=O)=O)=N\O)cc(OC)c1OC`
Reply: t

Task item: Another compound to look at: `COc1ccc(Cl)cc1NC(=O)Cn1nc(-c2ccccc2)ccc1=O`
Reply: t

Task item: Another compound to look at: `CCNC1(Cc2cc(C(=O)N3CCCCC3)on2)COC1`
Reply: t
